TEST SYSTEM: OCT1 (Homo sapiens)
Sequence (O15245 1-554): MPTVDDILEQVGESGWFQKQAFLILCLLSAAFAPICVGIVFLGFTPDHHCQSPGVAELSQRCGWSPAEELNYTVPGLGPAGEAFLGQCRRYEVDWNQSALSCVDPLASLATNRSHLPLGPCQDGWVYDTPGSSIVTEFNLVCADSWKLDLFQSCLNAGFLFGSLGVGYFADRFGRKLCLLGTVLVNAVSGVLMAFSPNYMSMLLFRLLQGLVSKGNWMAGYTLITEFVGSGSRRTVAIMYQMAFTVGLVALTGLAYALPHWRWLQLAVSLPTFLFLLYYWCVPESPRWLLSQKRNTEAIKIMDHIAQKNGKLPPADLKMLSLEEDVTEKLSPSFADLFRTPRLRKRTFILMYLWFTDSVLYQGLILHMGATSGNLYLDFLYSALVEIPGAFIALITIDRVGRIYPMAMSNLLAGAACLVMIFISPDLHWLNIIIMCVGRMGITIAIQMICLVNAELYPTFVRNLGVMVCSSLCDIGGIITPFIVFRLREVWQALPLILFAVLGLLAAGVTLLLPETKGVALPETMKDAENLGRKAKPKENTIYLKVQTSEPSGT
MEASUREMENT PROTOCOL: Inhibition of model substrate uptake in OCT1-overexpressing HEK293 cells
Format: cell-based
Design: expressed in transfected cells; host or cells: HEK293
REPORTED CONDITIONS: human, pH 7.4, OCT1; 20 μM inhibitor, 2 μM sumatriptan, 5 min; read-out: Sumatriptan inhibition [%]
EXPERIMENTAL ENDPOINT: inhibition at 5 min, 20 μM (%)

>>> df
                                   compound       experimental_endpoint  recorded_measurement
0  O=C(OC1C[N+]2(CCCOc3ccccc3)CCC1CC2)C(O)(c1cccs1)c1cccs1 [(R)-Aclidinium]  inhibition at 5 min, 20 μM                  93.6

====

TEST SYSTEM: OCT2 (Homo sapiens)
Sequence (O15244 1-555): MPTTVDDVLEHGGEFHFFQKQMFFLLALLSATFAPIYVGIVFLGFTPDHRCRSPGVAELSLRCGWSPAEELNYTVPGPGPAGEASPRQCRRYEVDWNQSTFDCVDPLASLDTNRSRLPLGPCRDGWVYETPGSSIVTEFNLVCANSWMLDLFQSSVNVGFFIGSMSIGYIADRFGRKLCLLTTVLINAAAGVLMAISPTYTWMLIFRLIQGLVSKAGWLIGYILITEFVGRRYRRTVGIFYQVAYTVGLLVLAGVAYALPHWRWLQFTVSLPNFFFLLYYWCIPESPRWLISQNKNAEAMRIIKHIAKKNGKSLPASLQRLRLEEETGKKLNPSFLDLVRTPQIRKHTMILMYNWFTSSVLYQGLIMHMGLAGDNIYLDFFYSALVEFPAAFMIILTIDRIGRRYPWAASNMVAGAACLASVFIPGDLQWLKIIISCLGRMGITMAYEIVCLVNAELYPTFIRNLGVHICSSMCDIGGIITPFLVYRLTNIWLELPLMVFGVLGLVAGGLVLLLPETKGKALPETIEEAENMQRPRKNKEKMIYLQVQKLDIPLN
MEASUREMENT PROTOCOL: Inhibition of model substrate uptake in OCT2-overexpressing HEK293 cells
REPORTED CONDITIONS: human, OCT2-overexpressing HEK293 cells, pH 7.4, probe N-ethyllidocaine (2 μM), N-Ethyllidocaine inhibition [%], OCT2; 20 μM inhibitor, 2 μM N-ethyllidocaine, 5 min
Criterion: inhibition at 5 min, 20 μM meeting or surpassing 30%. Met: yes. Not met: no.

>>> df
                                   compound          test_system  label
0  CNC[C@H](O)c1cccc(O)c1 [(R)-Phenylephrine]  OCT2 (Homo sapiens)     no
1  C=C[C@H]1C[N@@]2CC[C@H]1C[C@@H]2[C@@H](O)c1ccnc2ccc(OC)cc12 [Quinidine]  OCT2 (Homo sapiens)    yes
2  CNC[C@@H](O)c1cccc(O)c1 [(S)-Phenylephrine]  OCT2 (Homo sapiens)     no
3  OC[C@H](O)CN1CCN(c2ccccc2)CC1 [(R)-Dropropizine]  OCT2 (Homo sapiens)     no
4  CC(C)Cc1ccc([C@H](C)C(=O)O)cc1 [(S)-Ibuprofen]  OCT2 (Homo sapiens)     no
5  Cc1cccc(C)c1OC[C@@H](C)N [(R)-Mexiletine]  OCT2 (Homo sapiens)    yes
6  CC(C)(C)NC[C@H](O)COc1nsnc1N1CCOCC1 [(S)-Timolol]  OCT2 (Homo sapiens)     no

====

TEST SYSTEM: OCT3 (Homo sapiens)
Construct: expressed in transfected cells; host or cells: HEK293
Sequence (O75751 whole entry): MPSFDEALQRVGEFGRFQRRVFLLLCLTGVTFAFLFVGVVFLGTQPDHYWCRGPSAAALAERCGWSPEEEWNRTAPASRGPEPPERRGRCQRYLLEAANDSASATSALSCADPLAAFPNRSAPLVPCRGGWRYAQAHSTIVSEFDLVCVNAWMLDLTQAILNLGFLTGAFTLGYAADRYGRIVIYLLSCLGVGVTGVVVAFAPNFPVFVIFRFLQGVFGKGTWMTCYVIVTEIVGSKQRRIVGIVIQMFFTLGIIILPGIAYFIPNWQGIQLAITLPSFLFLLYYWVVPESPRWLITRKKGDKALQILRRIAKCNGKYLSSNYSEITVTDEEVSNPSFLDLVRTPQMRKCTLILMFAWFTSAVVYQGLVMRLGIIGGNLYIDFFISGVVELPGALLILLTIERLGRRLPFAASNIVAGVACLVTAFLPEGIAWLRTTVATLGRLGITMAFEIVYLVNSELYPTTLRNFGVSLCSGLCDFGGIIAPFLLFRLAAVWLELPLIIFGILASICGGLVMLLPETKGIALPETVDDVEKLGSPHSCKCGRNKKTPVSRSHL
MEASUREMENT PROTOCOL: Inhibition of model substrate uptake in OCT3-overexpressing HEK293 cells
Type: cell-based
REPORTED CONDITIONS: HEK293, OCT3; 20 μM inhibitor, 2 μM ASP+, 5 min; read-out: ASP+ inhibition [%]
EXPERIMENTAL ENDPOINT: inhibition at 20 µM

                                   compound  recorded_measurement
0  C#CCN(C)[C@H](C)Cc1ccccc1 [(R)-Deprenyl]                 12.6%
1  COc1ccc(CCN(C)CCC[C@@](C#N)(c2ccc(OC)c(OC)c2)C(C)C)cc1OC [(S)-Verapamil]                 20.8%
2  OC[C@H](O)CN1CCN(c2ccccc2)CC1 [(R)-Dropropizine]                 26.4%
3  Cc1cccc(C)c1OC[C@@H](C)N [(R)-Mexiletine]                -17.2%

====

selectivity ratio at 5 min reference
TEST SYSTEM: OCT1 (Homo sapiens)
MEASUREMENT PROTOCOL: Inhibition of model substrate uptake in OCT1-overexpressing HEK293 cells
Assay type: cell-based
Design: expressed in transfected cells; host or cells: HEK293
REPORTED CONDITIONS: human, OCT1-overexpressing HEK293 cells, pH 7.4; OCT1, Table S5; ratio of the IC50 values of both isomers; label = isomer named in the cell (as a rule the one with the higher IC50); read-out: Stereoselectivity (x-fold for the named isomer)
EXPERIMENTAL ENDPOINT: selectivity ratio at 5 min

>>> df
                                   compound       experimental_endpoint  recorded_measurement
0  CCCCN1CCCC[C@H]1C(=O)Nc1c(C)cccc1C [(S)-Bupivacaine]  selectivity ratio at 5 min                   1.8
1  CCN(CC)CC#CCOC(=O)[C@](O)(c1ccccc1)C1CCCCC1 [(R)-Oxybutynine]  selectivity ratio at 5 min                   1.2
2  CCCN[C@H]1CCc2nc(N)sc2C1 [(S)-Pramipexole]  selectivity ratio at 5 min                   1.6
3  CN(C)CCO[C@@](C)(c1ccccc1)c1ccccn1 [(S)-Doxylamine]  selectivity ratio at 5 min                   1.4

====

Documented inhibition at 5 min, 20 μM across a set of compounds
TEST SYSTEM: OCT2 (Homo sapiens)
MEASUREMENT PROTOCOL: Inhibition of model substrate uptake in OCT2-overexpressing HEK293 cells
REPORTED CONDITIONS: human, OCT2-overexpressing HEK293 cells, pH 7.4, probe (S,S)-ethambutol (2 μM), (S,S)-Ethambutol inhibition [%], OCT2; 20 μM inhibitor, 2 μM (S,S)-ethambutol, 5 min
Experimental: All experiments were carried out in transporter-overexpressing HEK293 cells. […] As for the transport experiments, 300,000 HEK293 cells were plated in poly-D-lysine-coated 24-well plates 2 days ahead of the experiment. […] Cell lysates were transferred into a black 96-well plate for the fluorescence measurement of ASP^+ or used for sample preparation for LC–MS/MS analysis. […] Fluorescence quantification was performed in technical duplicates. […]
EXPERIMENTAL ENDPOINT: inhibition at 5 min, 20 μM (%)

>>> df
                                   compound  recorded_measurement
0  OC[C@H](O)CN1CCN(c2ccccc2)CC1 [(R)-Dropropizine]                    28
1  CNC[C@@H](O)c1cccc(O)c1 [(S)-Phenylephrine]                   5.5
2  CC(C)(C)NC[C@H](O)COc1nsnc1N1CCOCC1 [(S)-Timolol]                  14.4
3  C=C[C@H]1C[N@@]2CC[C@H]1C[C@@H]2[C@@H](O)c1ccnc2ccc(OC)cc12 [Quinidine]                  13.3
4  Cc1cccc(C)c1OC[C@@H](C)N [(R)-Mexiletine]                  52.1
5  CCCN[C@H]1CCc2nc(N)sc2C1 [(S)-Pramipexole]                  15.8
6  COc1ccccc1OCCNC[C@@H](O)COc1cccc2[nH]c3ccccc3c12 [(R)-Carvedilol]                  13.5
7  Cc1cccc(C)c1OC[C@H](C)N [(S)-Mexiletine]                  58.7
8  CN(C)CCc1c[nH]c2ccc(C[C@H]3COC(=O)N3)cc12 [(S)-Zolmitriptan]                  13.3
9   C#CCN[C@H]1CCc2ccccc21 [(S)-Rasagiline]                    57
